Quick list: SI (CC50 HMLE/IC50 Hela) per entry.
Test system: HeLa cells
assay-info: In vitro anti-proliferative SRB assay, HeLa
Assay type: cell-based, human
experimental-conditions: selectivity index, HMLE vs HeLa
Output: the number by itself.

{"item-smiles": "COc1cccc(OC)c1/C=C/C(=O)c1ccc(Cl)cc1", "SI (CC50 HMLE/IC50 Hela)": 1.0}
{"item-smiles": "COc1ccc(C(=O)/C=C/c2c(OC)cccc2OC)c(O)c1", "SI (CC50 HMLE/IC50 Hela)": 1.0}
{"item-smiles": "COc1ccccc1C(=O)/C=C/c1c(OC)cccc1OC", "SI (CC50 HMLE/IC50 Hela)": 0.8}
{"item-smiles": "CCOc1ccc(C(=O)/C=C/c2c(OC)cccc2OC)cc1", "SI (CC50 HMLE/IC50 Hela)": 1.0}
{"item-smiles": "COc1cccc(OC)c1/C=C/C(=O)c1ccc(-c2ccccc2)cc1", "SI (CC50 HMLE/IC50 Hela)": 2.5}
{"item-smiles": "COc1cccc(OC)c1/C=C/C(=O)c1cccc(Cl)c1", "SI (CC50 HMLE/IC50 Hela)": 0.6}

Turning now to a further compound:
What does the data say about its SI (CC50 HMLE/IC50 Hela)? Entry: `COc1ccc(C(=O)/C=C/c2c(OC)cccc2OC)cc1OC`
1.1

----------
Tested on: SW1990 cells
assay-info: In vitro anti-proliferative SRB assay, SW1990
Format: cell-based, human
experimental-conditions: selectivity index, HMLE vs SW1990
measured-endpoint: SI (CC50 HMLE/IC50 SW1990)

Example entries begin here.
{"item-smiles": "COc1cccc(OC)c1/C=C/C(=O)c1ccc(C)cc1", "measured-endpoint": "SI (CC50 HMLE/IC50 SW1990)", "observed-value": "<0.5"}
{"item-smiles": "COc1cccc(OC)c1/C=C/C(=O)c1ccccc1C", "measured-endpoint": "SI (CC50 HMLE/IC50 SW1990)", "observed-value": "<0.5"}

With those in mind, consider the next compound.
Name the reported SI (CC50 HMLE/IC50 SW1990) value associated with the compound `COc1cccc(OC)c1/C=C/C(=O)c1ccc(Cl)cc1`
<0.6

----------
# maps each entry to its melting point

{"item-smiles": "COc1ccc(OC)c(C(=O)/C=C/c2c(OC)cccc2OC)c1", "melting point": "121 to 122 °C"}
{"item-smiles": "COc1cccc(OC)c1/C=C/C(=O)c1cccc(O)c1", "melting point": "138.1 to 139.7 °C"}

The record that follows has no melting point shown yet.
Fill in: melting point of `COc1cccc(OC)c1/C=C/C(=O)c1ccccc1F` is ___
66.6 to 68.1 °C

----------
System: MCF-7 cells
assay-info: In vitro anti-proliferative SRB assay, MCF-7
Type: cell-based, human
experimental-conditions: selectivity index, L02 vs MCF7
Just a reminder that ties go to 0: only SI (CC50 L02/IC50 MCF7) strictly below 2 counts as 1.

Please review the entries below; each comes with its answer.
{"compound": "CCOc1cc(OC)ccc1C(=O)/C=C/c1c(OC)cccc1OC [b17]", "group": 1}
{"compound": "CCOc1ccc(C(=O)/C=C/c2c(OC)cccc2OC)cc1 [b10]", "group": 1}
{"compound": "CCOc1cccc(C(=O)/C=C/c2c(OC)cccc2OC)c1 [b9]", "group": 1}
{"compound": "COc1cccc(OC)c1/C=C/C(=O)c1cccc(Cl)c1 [b34]", "group": 0}
{"compound": "COc1cccc(OC)c1/C=C/C(=O)c1cccc(O)c1 [b25]", "group": 0}
{"compound": "COc1cccc(OC)c1/C=C/C(=O)c1cccc(OCc2ccccc2)c1 [b12]", "group": 0}
{"compound": "CCOc1ccc(C(=O)/C=C/c2c(OC)cccc2OC)cc1OC [b16]", "group": 0}
{"compound": "COc1cccc(OC)c1/C=C/C(=O)c1ccc(Cl)cc1 [b35]", "group": 0}

In the record for COc1cccc(OC)c1/C=C/C(=O)c1cccc(Br)c1 [b36] , is SI (CC50 L02/IC50 MCF7) less than 2?
0

Bench note: check whether COc1cccc(OC)c1/C=C/C(=O)c1ccc(Cl)cc1Cl [b37] shows SI (CC50 L02/IC50 MCF7) below 2
0
